Value source: patent US8232293B2

# assay summary: Solubility in non-aqueous excipients (excess solid, HPLC of filtrate)
# Assay type: physicochemical
# assay conditions: PEG 400 (non-aqueous excipient), organic solvent or mixture, thermodynamic from solid, excipient PEG 400; room temperature, rotated up to 4 days; read-out: Solubility in PEG 400
# Description: The solubility of Compound (1), as either Type A or the sodium salt form, was investigated in various non-aqueous solvents. The solutions were prepared by addition of excess Compound (1) to 0.25 ml to 1.0 ml of excipient in amber screw cap vials with Teflon lined caps. The samples were allowed to rotate at room temperature for up to 4 days. […] Wet solids were collected and analyzed for form change (stability) by XRPD.
Where a name gives a salt, the structure may show the parent alone.
parameter measured: solubility (mg/mL)
// return numeric value only (unit: mg/mL, not printed)

INPUT: Dear colleague, I am looking for the recorded solubility of the following compound: C=C[C@@H]1C[C@]1(NC(=O)[C@@H]1C[C@@H](Oc2cc(-c3csc(NC(=O)C(C)C)n3)nc3c(Br)c(OC)ccc23)CN1C(=O)[C@@H](NC(=O)OC1CCCC1)C(C)(C)C)C(=O)O [Compound (1) Na salt]
OUTPUT: 234

---

# assay summary: Solubility in non-aqueous excipients (excess solid, HPLC of filtrate)
# Format: physicochemical
# assay conditions: Capmul PG8 (non-aqueous excipient), oil or lipid, thermodynamic from solid, excipient Capmul PG8; room temperature, rotated up to 4 days; read-out: Solubility in Capmul PG8
Where a name gives a salt, the structure may show the parent alone.
parameter measured: solubility

INPUT: Dear colleague, I am looking for the recorded solubility of the following compound: C=C[C@@H]1C[C@]1(NC(=O)[C@@H]1C[C@@H](Oc2cc(-c3csc(NC(=O)C(C)C)n3)nc3c(Br)c(OC)ccc23)CN1C(=O)[C@@H](NC(=O)OC1CCCC1)C(C)(C)C)C(=O)O [Compound (1) Na salt]
OUTPUT: < 169 mg/mL

---

# assay summary: Solubility in non-aqueous excipients (excess solid, HPLC of filtrate)
# Type: physicochemical
# assay conditions: Labrasol (non-aqueous excipient), oil or lipid, thermodynamic from solid, excipient Labrasol; room temperature, rotated up to 4 days; read-out: Solubility in Labrasol
Counter-ions that a name gives are not always drawn.
parameter measured: solubility (mg/mL)
// return numeric value only (unit: mg/mL, not printed)

INPUT: Dear colleague, I am looking for the recorded solubility of the following molecule: C=C[C@@H]1C[C@]1(NC(=O)[C@@H]1C[C@@H](Oc2cc(-c3csc(NC(=O)C(C)C)n3)nc3c(Br)c(OC)ccc23)CN1C(=O)[C@@H](NC(=O)OC1CCCC1)C(C)(C)C)C(=O)O [Compound (1) Na salt]
OUTPUT: 175

---

# assay summary: Solubility in non-aqueous excipients (excess solid, HPLC of filtrate)
# Assay type: physicochemical
# assay conditions: Capmul MCM (non-aqueous excipient), oil or lipid, thermodynamic from solid, excipient Capmul MCM; room temperature, rotated up to 4 days; read-out: Solubility in Capmul MCM
Counter-ions that a name gives are not always drawn.
parameter measured: solubility
Value and unit, in that order.

INPUT: Dear colleague, I am looking for the recorded solubility of the following molecule: C=C[C@@H]1C[C@]1(NC(=O)[C@@H]1C[C@@H](Oc2cc(-c3csc(NC(=O)C(C)C)n3)nc3c(Br)c(OC)ccc23)CN1C(=O)[C@@H](NC(=O)OC1CCCC1)C(C)(C)C)C(=O)O [Compound (1) Na salt]
OUTPUT: 262 mg/mL
